Data provenance is a melting point compilation (Tetko et al.; mined from patent text by program, amines drawn as free bases though some values may be those of a salt).

Measured metric: melting point

compound="CC(CN1CC(=O)N(CN2CCN(c3ccccc3)CC2)C(=O)C1)N1CC(=O)N(CN2CCN(c3ccccc3)CC2)C(=O)C1 (centres undefined)" obs_value="94 to 101 °C"
compound=CCOC(=O)Cn1c(C)cnc(NCC(F)(F)c2ccccc2)c1=O obs_value="106 to 110 °C"
compound="CCC(C(c1ccc(OC)cc1)c1ccc(C(C)(C)C)cc1)[N+](=O)[O-] (centres undefined)" obs_value="114 to 116 °C"
compound="CC12CCC3c4ccc(O)cc4CCC3C1CCC2=CCl (centres undefined)" obs_value="130 to 133 °C"
compound=CCOc1ccc(CO)c(Oc2ccc(Cl)cc2Cl)n1 obs_value="106 to 107 °C"
compound=Cc1cc([N+](=O)[O-])c(Cl)c([N+](=O)[O-])c1S(=O)(=O)Cl obs_value="105 to 107 °C"
compound=O=C1c2ccccc2COc2ccc(CCCOC(=O)C(F)(F)F)cc21 obs_value="40.5 to 41 °C"
compound=COc1ccc(-c2cnc(-c3ccccc3)[nH]c2=O)cc1OC obs_value="230 °C"
compound=COc1cccc(C(=O)Nc2nc(C(=O)c3ccc([N+](=O)[O-])c(OC)c3)n3ccccc23)c1 obs_value="167 °C"
compound=CN1C(=O)CN=C(c2ccccc2F)c2cc(NC(=O)NCc3ccccc3)ccc21 obs_value="174 to 178 °C"
compound="CCc1c(Sc2cc(C)cc(C)c2)n(CC2=CCC(CO)C2)c(=O)[nH]c1=O (centres undefined)" obs_value="57 to 60 °C"
compound=CCOC(=O)CC1(S(N)(=O)=O)c2ccccc2-c2ccccc21 obs_value="167 to 170 °C"
compound=Cn1c(-c2ccc(F)cc2)c(OCCOc2ccc(C=C3SC(=O)NC3=O)cc2)c(=O)c2ccccc21 obs_value="225 to 228 °C"
compound="CC1(C)OC2OC(CN3C(=O)C4(COc5cc6c(cc54)OCCO6)c4ccccc43)C3OC(C)(C)OC3C2O1 (centres undefined)" obs_value="112 to 118 °C"
compound="O=c1[nH]c(=O)n(C2CC(O)C(CO)O2)cc1C(I)=CI (centres undefined)" obs_value="103 to 105 °C"
compound=Cc1ccccc1C(=O)c1c(C)nn(C)c1O obs_value="82 to 83 °C"
compound=CNC(=NS(C)(=O)=O)NCCSCc1csc(NC(N)=NCC(F)F)n1 obs_value="85 to 89 °C"
compound=COC(=O)c1ccc(C(=O)NC(C)C)cc1S(N)(=O)=O obs_value="203 to 205 °C"
compound="OC1CCN(c2nc(-c3ccccc3)nc3ccccc23)C1 (centres undefined)" obs_value="180 to 182 °C"
compound=NC(=O)c1nnn(Cc2ccc(C(=O)c3ccc(Cl)cc3)c(Cl)c2)c1N obs_value="203 to 205 °C"
compound="CCCCCCCCCCCCOc1ccc2c(c1)C(CCNC(=O)CCC)CC2 (centres undefined)" obs_value="68 to 69 °C"
compound=NS(=O)(=O)c1cc(C(=O)O)cc(NCc2ccccc2)c1-c1ccccc1 obs_value="221 to 222 °C"
compound=CNC(=O)c1ccc(Nc2nc(O[C@H]3CCOC3)c3c(-c4ccc5nc(C)oc5c4)c[nH]c3n2)c(C)c1 obs_value="273 to 274 °C"
compound="O=C(Oc1ccccc1)OC1c2nccnc2C(=O)N1c1ccc2ccc(Cl)nc2n1 (centres undefined)" obs_value="270 °C"
compound=CCOc1ccc([N+](=O)[O-])c(NC2Cc3ccccc3C2)c1 obs_value="151 °C"
compound="COC(=O)c1c[nH]c(CCC2CNc3nc(NC(=O)C(C)(C)C)nc(O)c3C2)c1 (centres undefined)" obs_value="> 260 °C"
compound="CCc1c2c(c(C)[nH]c1=O)CC(c1ccccn1)CC2 (centres undefined)" obs_value="300 °C"
compound=O=C(c1cccs1)c1cnn2c(-c3ccc(F)c(N(C(=O)OCC(Cl)(Cl)Cl)C(=O)OCC(Cl)(Cl)Cl)c3)ccnc12 obs_value="94 to 97 °C"
compound=OCCc1cc(Br)ccc1O obs_value="63 to 65 °C"
compound="N#Cc1cc(NC(=O)C2CCc3ccccc3C2)ccc1N1CCC(O)CC1 (centres undefined)" obs_value="163 to 165 °C"
compound=CC(=O)Nc1nc2c(Oc3cc(-c4ccc(C(F)(F)F)cc4N)ncn3)cccc2s1 obs_value="160 to 161 °C"
compound=c1ccc2c(c1)nc1snc(-c3cnccn3)n12 obs_value="255 to 256 °C"
compound=COc1cc(N2CCOCC2)ccc1Nc1nc(Nc2ccc3c(c2OC)CCCC(=O)N3)ncc1Cl obs_value="248 to 249 °C"
compound=Nc1scc(CN2CCN(c3ccccc3)CC2)c1C(=O)c1ccc(Cl)cc1 obs_value="112 °C"
compound="O=C(CCn1cnc2c(=O)[nH]cnc21)NC1CCSC1=O (centres undefined)" obs_value="228 to 230 °C"
compound="CCN1CCCC1CNS(=O)(=O)c1ccc(Nc2ccnc3cc(C(F)(F)F)ccc23)cc1 (centres undefined)" obs_value="194 to 195 °C"
compound=CN(C)C(=O)Nc1ccc(OS(C)(=O)=O)c(Cl)c1 obs_value="130 to 132 °C"
compound=CC(=O)n1c2ccc(O)cc2c2c3c(c(-c4ccccc4Cl)cc21)C(=O)NC3=O obs_value="258 to 261 °C"
compound="COc1ccc(C2CCCN(C(=O)C(F)(F)F)C2)cc1N (centres undefined)" obs_value="88 °C"

* * *

In this section, each of the molecules is paired with its reported melting point.
Measured metric: melting point

molecule=CCOC(=O)C(=O)Nc1cc(Cl)cc(NC(=O)C(=O)OCC)n1 measured_metric="melting point" obs_value="164 to 166 °C"
molecule=CCOCc1nc2c(N)nc(C)c(C)c2n1Cc1cc(-c2cccnc2)no1 measured_metric="melting point" obs_value="189 to 191 °C"
molecule="Cn1c(COc2ccc(CC3SC(=O)N(C(c4ccccc4)(c4ccccc4)c4ccccc4)C3=O)cc2)nc2cccnc21 (centres undefined)" measured_metric="melting point" obs_value="97 to 102 °C"
molecule="CCC(O)c1ccc(-c2ccc(Cl)cc2)o1 (centres undefined)" measured_metric="melting point" obs_value="74 to 75 °C"
molecule=COc1ccc(C(=O)CC2CCN(CCn3c(=O)[nH]c4ccccc43)CC2)cc1 measured_metric="melting point" obs_value="156 °C"
molecule=COC(=O)c1cccc(CNC(C)=O)c1C(=O)OC measured_metric="melting point" obs_value="177 to 179 °C"
molecule=COc1cc(C(C)=O)ccc1OCCCN1CCN(c2nn(C(=O)c3ccccc3)c3cc(F)ccc23)CC1 measured_metric="melting point" obs_value="138 to 140 °C"
molecule=Cc1cc(-c2cc(C(=O)O)c(=O)n(CC=Cc3ccccc3)n2)ccc1F measured_metric="melting point" obs_value="143 to 144 °C"
molecule=CSC=CC(C)(C)C(=O)Nc1ccc(Cl)cc1 measured_metric="melting point" obs_value="105 to 106 °C"
molecule=COCCOc1ccc(CCC(=O)NS(=O)(=O)CCC(C)C)c(Oc2ncc(C(F)(F)F)cc2Cl)c1 measured_metric="melting point" obs_value="130 to 132 °C"
molecule=COc1cc(CN/C=C2\C(=O)NC(=O)c3ccc(-c4ccc(Oc5ccccc5)cc4)cc32)cc(O)c1OC measured_metric="melting point" obs_value="240 to 241 °C"
molecule=CCc1noc(-c2cn(-c3c(OCc4ccccc4)cccc3OCc3ccccc3)cn2)n1 measured_metric="melting point" obs_value="149 to 150 °C"
molecule=CCOC(=O)[C@H](Cc1ccc(-c2c(OC)cc(COS(C)(=O)=O)cc2OC)cc1)NC(=O)c1c(F)cccc1Cl measured_metric="melting point" obs_value="104 to 107 °C"
molecule=O=C(NCCCCOc1ccc(-n2ccnc2)cc1)c1ccc(I)cc1 measured_metric="melting point" obs_value="143 to 145 °C"
molecule=CCCCCCNC(=O)Nc1ccccc1C(=O)NCCC1CCN(C(c2ccccc2)c2ccccc2)CC1 measured_metric="melting point" obs_value="143 to 144 °C"
molecule=C=C=Cn1c(C)c(C)c2cnnc(OCc3ccccc3)c21 measured_metric="melting point" obs_value="77 to 79 °C"
molecule=CC(C)(C)NC(=O)[C@H](Cc1ccc(OCc2c(Cl)cccc2Cl)cc1)NC(=O)OC(C)(C)C measured_metric="melting point" obs_value="82 to 86 °C"
molecule=CCCCc1oc2ccc(C(=O)OC)cc2c1C(=O)c1ccc(O)cc1 measured_metric="melting point" obs_value="152 to 153 °C"
molecule=COc1nc(C)cnc1N(C(=O)OCC(C)C)S(=O)(=O)c1cccnc1-c1ccc(I)cc1 measured_metric="melting point" obs_value="156 to 158 °C"
molecule="CC1=C(C(=O)OCCN(C)c2ccccc2)C(c2ccccc2C(F)(F)F)c2c(ccnc2OC(C)C)N1 (centres undefined)" measured_metric="melting point" obs_value="114 to 116 °C"
molecule=Cc1noc(NC(=O)N2CCN(c3nccc(-c4cc(F)cc(F)c4)n3)CC2)c1C measured_metric="melting point" obs_value="241 to 242 °C"
molecule=CCCCn1c(N)c(N=O)c(=O)n(CC2CCCCC2)c1=O measured_metric="melting point" obs_value="229 to 230 °C"
molecule=CCN(C)c1cccc(NC(=O)COC(C)=O)c1C#N measured_metric="melting point" obs_value="57 to 58 °C"
molecule=Cc1ccccc1-c1cc(N2CCOCC2)ncc1N(C)C(=O)C(C)(C)c1cc(C(F)(F)F)cc(C(F)(F)F)c1 measured_metric="melting point" obs_value="129 to 130 °C"
molecule=CC(C)(C)ON=Cc1ncn2c1[C@@H]1CCCN1C(=O)c1c(Cl)cccc1-2 measured_metric="melting point" obs_value="215 to 216 °C"
molecule=Nc1ncc(Cl)c(Cl)c1Cl measured_metric="melting point" obs_value="160 to 162 °C"
molecule=CCOCc1nc2c(N)nc3ccccc3c2n1CC1(OCCS(C)(=O)=O)CCC1 measured_metric="melting point" obs_value="221 to 223 °C"
molecule=C[C@@H]1N(c2ccc(C#N)c(C(F)(F)F)c2)C(=O)C[C@@]1(O)C1CC1 measured_metric="melting point" obs_value="84 to 90 °C"
molecule=COc1ccc2cc(C(=O)CCCCCCC(=O)O)ccc2c1 measured_metric="melting point" obs_value="148 to 149 °C"
molecule=COC(=O)c1cc(O)cc(OC)c1 measured_metric="melting point" obs_value="85 to 86 °C"
molecule="CC1CN(Cc2ccccc2)Cc2cc(-c3ccccc3)n(Cc3ccccc3)c21 (centres undefined)" measured_metric="melting point" obs_value="131 °C"
molecule="CCCc1nc2ccccc2n1Cc1ccc(C2CCCC2C(=O)O)cc1 (centres undefined)" measured_metric="melting point" obs_value="179 to 180 °C"
molecule="CCOC(=O)C(CC)Cc1ccc(NC(=O)c2ccc(Cl)cc2)cc1 (centres undefined)" measured_metric="melting point" obs_value="119 to 120 °C"
molecule=CCn1c(=O)n(CCOCCOC)c(=O)c2c1ncn2Cc1ccccc1 measured_metric="melting point" obs_value="140 °C"
molecule=CCCN(C)c1nn(C)c(=O)c2c1ccn2-c1c(C)cc(C)cc1C measured_metric="melting point" obs_value="105 to 108 °C"
molecule=CN(C)C(=O)Cn1c(-c2ccc(F)cc2)nc2cccnc21 measured_metric="melting point" obs_value="180 to 183 °C"
molecule=O=C(O)c1ccc(Cl)nc1NCc1ccncc1 measured_metric="melting point" obs_value="217 to 220 °C"
molecule=Cc1oc(-c2ccccc2)nc1COc1ccc(Cn2cc(CCC(=O)O)c(-c3ccc(F)cc3)n2)cc1 measured_metric="melting point" obs_value="139 to 140 °C"
molecule="NCC1Cc2cccc(-c3cccc(Cl)c3)c2O1 (centres undefined)" measured_metric="melting point" obs_value="150 to 154 °C"
